These data points were gathered from patent US20230049231A1.

assayed.target: hERG channel (Homo sapiens, UniProt Q12809)
Construct: expressed in transfected cells
Sequence (Q12809 whole entry): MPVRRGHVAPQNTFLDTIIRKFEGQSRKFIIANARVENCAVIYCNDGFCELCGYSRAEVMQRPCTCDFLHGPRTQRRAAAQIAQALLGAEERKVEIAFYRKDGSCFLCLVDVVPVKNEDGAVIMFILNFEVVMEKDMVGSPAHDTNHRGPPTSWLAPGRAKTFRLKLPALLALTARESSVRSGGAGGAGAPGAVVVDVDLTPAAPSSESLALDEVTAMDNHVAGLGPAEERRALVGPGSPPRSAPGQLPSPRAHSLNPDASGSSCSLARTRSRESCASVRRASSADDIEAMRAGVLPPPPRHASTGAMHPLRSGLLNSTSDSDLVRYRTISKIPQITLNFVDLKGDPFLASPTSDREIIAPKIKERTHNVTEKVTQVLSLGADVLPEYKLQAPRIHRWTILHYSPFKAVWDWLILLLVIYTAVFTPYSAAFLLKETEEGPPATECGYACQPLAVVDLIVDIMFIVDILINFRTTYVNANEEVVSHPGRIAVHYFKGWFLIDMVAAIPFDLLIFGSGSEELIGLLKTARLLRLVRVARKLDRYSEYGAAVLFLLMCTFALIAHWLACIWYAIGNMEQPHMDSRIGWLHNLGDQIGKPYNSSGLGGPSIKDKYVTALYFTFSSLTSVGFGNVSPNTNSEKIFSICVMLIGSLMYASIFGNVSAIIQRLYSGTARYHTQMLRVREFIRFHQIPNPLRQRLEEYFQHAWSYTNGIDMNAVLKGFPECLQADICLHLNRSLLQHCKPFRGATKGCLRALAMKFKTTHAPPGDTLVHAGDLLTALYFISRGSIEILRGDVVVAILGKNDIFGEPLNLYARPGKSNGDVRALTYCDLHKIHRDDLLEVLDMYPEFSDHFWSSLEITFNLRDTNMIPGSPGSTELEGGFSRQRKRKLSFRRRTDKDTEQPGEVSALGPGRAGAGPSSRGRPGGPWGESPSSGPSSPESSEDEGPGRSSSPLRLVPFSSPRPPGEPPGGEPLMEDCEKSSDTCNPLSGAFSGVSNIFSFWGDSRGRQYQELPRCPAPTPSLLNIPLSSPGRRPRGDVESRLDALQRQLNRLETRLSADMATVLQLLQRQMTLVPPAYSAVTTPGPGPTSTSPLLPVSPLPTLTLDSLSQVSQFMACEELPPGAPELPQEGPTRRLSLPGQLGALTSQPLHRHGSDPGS
experiment.description: hERG electrophysiology, automated whole-cell patch clamp (Patchliner)
Format: cell-based
stated.conditions: hERG channel, whole-cell patch clamp
pIC50: −log10 of the molar value.
measured.quantity: pIC50

> print(dat)
                                   compound  result
1  O=C1C[C@H](N2CC(O)C2)C[C@@H]2C[C@H](c3c(O)ccc(Cl)c3Cl)CN12 (single isomer, unassigned)  < 4.52
2  O=C1CN(c2ccnc(CO)n2)C[C@@H]2C[C@H](c3c(O)ccc(Cl)c3Cl)CN12  < 4.52
3  COC[C@@H](O)CN1CC(=O)N2C[C@@H](c3c(O)ccc(Cl)c3Cl)C[C@H]2C1 (single isomer, unassigned; isomer 1)  > 4.52
